- Tested target: Full-length inactive AKT1 (Homo sapiens)
- Experimental protocol: Inactive Akt Alpha Screen Assay
- Assay type: biochemical
- Test parameters: values not marked with "*"; read-out: Akt1 IC50, (AlphaScreen)
Property: IC50 (nM)

Cc1cnc2c(c1)nc(-c1cccnc1N)n2-c1ccc(CNC(=O)c2ccccc2-n2cccc2)cc1 [Example 214] :: 23
Cc1cc2nc(-c3cccnc3N)n(-c3ccc(CNC(=O)c4ccccc4)cc3)c2nc1Cl [Example 346] :: 86
Nc1ncccc1-c1nc2ccc(-c3cn[nH]c3)nc2n1-c1ccc(CNC(=O)c2cccc(F)c2)cc1 [Example 305] :: 12

A = CNC(=O)c1cccc(-c2ccc3nc(-c4cccnc4N)n(-c4ccc(CN)cc4)c3n2)c1 [Example 369]
B = Nc1ncccc1-c1nc2ccc(-c3cncnc3)nc2n1-c1ccc(CNC(=O)c2cccc(F)c2)cc1 [Example 337]
-- ask Of the two listed items, which has the higher IC50? First: A Second: B // caller expects the label of the chosen entry
-- reply B

1 = N#Cc1cccc(-c2ccc3nc(-c4cccnc4N)n(-c4ccc(C5(N)CCC5)cc4)c3n2)c1 [Example 392]
2 = CCS(=O)(=O)NCc1ccc(-n2c(-c3cccnc3N)nc3cc(Br)cnc32)cc1 [Example 170]
-- ask Between item 1 and item 2 , which reported IC50 is smaller? # answer = label of selected item
-- reply 1

---

- System: A2780
- Experimental protocol: MTS Assay, cell proliferation, A2780
- Format: cell-based
- Test parameters: Homo sapiens, read-out: Average of [CELL], IC50, MTS (72 hours; 10 Percent; FBS) A2780
Property: IC50 (µM)

Examples with their reported IC50 follow.
CC(=O)Nc1cccc(-c2ccc3nc(-c4cccnc4N)n(-c4ccc(CNS(=O)(=O)c5ccccc5)cc4)c3n2)c1 [Example 324] :: 6.3
Cc1cnc2c(c1)nc(-c1cccnc1N)n2-c1ccc(CC(=O)Nc2ccc3ncccc3c2)cc1 [Example 295] :: 3.8
CC(=O)Nc1cccc(-c2ccc3nc(-c4cccnc4N)n(-c4ccc(CC(=O)Nc5cccc(F)c5)cc4)c3n2)c1 [Example 294] :: 3.3
CCCCNC(=O)Cc1ccc(-n2c(-c3cccnc3N)nc3ccc(-c4cccc(NC(C)=O)c4)nc32)cc1 [Example 297] :: 15
CC(=O)Nc1cccc(-c2ccc3nc(-c4cccnc4N)n(-c4ccc(CNC(=O)c5ccccc5)cc4)c3n2)c1 [Example 287] :: 1.6
CC(=O)Nc1cccc(-c2ccc3nc(-c4cccnc4N)n(-c4ccc(CC(=O)Nc5ccc6nc(C)ccc6c5)cc4)c3n2)c1 [Example 290] :: 3.8
CC(=O)Nc1cccc(NC(=O)Cc2ccc(-n3c(-c4cccnc4N)nc4ccc(-c5cccc(NC(C)=O)c5)nc43)cc2)c1 [Example 289] :: 10
Nc1ncccc1-c1nc2ccc(-c3ccoc3)nc2n1-c1ccc(CNC(=O)c2cccc(F)c2)cc1 [Example 307] :: 2.9

A = Nc1ncccc1-c1nc2ccc(-c3cccc(CO)c3)nc2n1-c1ccc(CNC(=O)c2cccc(F)c2)cc1 [Example 308]
B = Nc1ncccc1-c1nc2ccc(-c3cn[nH]c3)nc2n1-c1ccc(CNC(=O)c2cccc(F)c2)cc1 [Example 305]
C = CC(=O)Nc1cccc(-c2ccc3nc(-c4cccnc4N)n(-c4ccc(CC(=O)NC(C)C)cc4)c3n2)c1 [Example 296]
D = CC(=O)Nc1cccc(-c2ccc3nc(-c4cccnc4N)n(-c4ccc(CC(=O)Nc5ccccc5)cc4)c3n2)c1 [Example 261]
E = Nc1ncccc1-c1nc2ccc(-c3cccnc3)nc2n1-c1ccc(CNC(=O)c2cccc(F)c2)cc1 [Example 333]
-- ask Output the entries ranked by IC50 from maximum down to minimum. List the labels, following the order given in the request.
-- reply C, E, B, D, A
(C: 33 µM, E: 13 µM, B: 6.8 µM, D: 3.3 µM, A: 2.3 µM)

---

- Tested target: Full-length inactive AKT1 (Homo sapiens, UniProt P31749)
- Sequence (P31749 whole entry): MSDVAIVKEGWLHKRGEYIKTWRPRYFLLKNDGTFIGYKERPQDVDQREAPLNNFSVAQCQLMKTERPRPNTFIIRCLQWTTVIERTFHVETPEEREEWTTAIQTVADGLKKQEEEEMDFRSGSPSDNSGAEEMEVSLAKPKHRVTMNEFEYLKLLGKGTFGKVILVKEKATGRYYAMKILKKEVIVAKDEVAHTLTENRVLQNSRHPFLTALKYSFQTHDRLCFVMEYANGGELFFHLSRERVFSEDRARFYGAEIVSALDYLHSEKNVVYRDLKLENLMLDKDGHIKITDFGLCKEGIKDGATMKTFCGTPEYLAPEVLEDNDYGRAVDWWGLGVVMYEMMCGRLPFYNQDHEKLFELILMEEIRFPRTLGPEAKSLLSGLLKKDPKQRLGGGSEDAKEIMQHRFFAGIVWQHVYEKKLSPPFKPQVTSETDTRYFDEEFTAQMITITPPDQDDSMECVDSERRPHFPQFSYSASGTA
- Experimental protocol: Inactive Akt Alpha Screen Assay
- Type: biochemical
- Test parameters: values not marked with "*"; read-out: Akt1 IC50, (AlphaScreen)
pIC50: −log10 of the molar value.
Property: pIC50

Cc1cnc2c(c1)nc(-c1cccnc1N)n2-c1ccc(CNC(=O)c2ccc(Cl)cc2F)cc1 :: 7.08
CC(=O)Nc1cccc(-c2ccc3nc(-c4cccnc4N)n(-c4ccc(CNC(=O)c5ccccc5)cc4)c3n2)c1 :: 7.85
Nc1ncccc1-c1nc2ccc(-c3ccccc3O)nc2n1-c1ccc(CNC(=O)c2cccc(F)c2)cc1 :: 7.33
Nc1ncccc1-c1nc2ccc(-c3cccc(CO)c3)nc2n1-c1ccc(C2(N)CCC2)cc1 :: 8.89

I = CCOC(=O)Cc1ccc(-n2c(-c3cccnc3N)nc3ccc(-c4cccnc4)nc32)cc1
II = Nc1ncccc1-c1nc2ccc(-c3ccc4c(c3)OCCO4)nc2n1-c1ccc(CNC(=O)c2cccc(F)c2)cc1
-- ask Given the listed records, identify the one among I and II with higher pIC50. Respond using the label that marks the chosen record.
-- reply I
(I: 7.19, II: 6.80)

1 = Cc1cnc2c(c1)nc(-c1cccnc1N)n2-c1ccc(CC(=O)Nc2ccccc2)cc1
2 = Nc1ncccc1-c1nc2cc(Br)cnc2n1-c1ccc(CNS(=O)(=O)c2ccc3c(c2)CCO3)cc1
3 = Nc1ncccc1-c1nc2ccc(-c3ccc(CO)cc3)nc2n1-c1ccc(CNC(=O)c2ccccc2)cc1
-- ask Could you please sort these 3 entries by pIC50 from high to low? When ranking, write the labels in the order the request describes.
-- reply 3, 1, 2

a = Cc1cnc2c(c1)nc(-c1cccnc1N)n2-c1ccc(CC(=O)Nc2ccc3ncccc3c2)cc1
b = COC(=O)c1cccc(C(=O)NCc2ccc(-n3c(-c4cccnc4N)nc4cc(C)cnc43)cc2)c1
-- ask Between a and b , whose measured pIC50 reads higher? Returns: label corresponding to the selected item.
-- reply a

---

- Tested target: Full-length inactive AKT1 (Homo sapiens)
- Experimental protocol: Inactive Akt Alpha Screen Assay
- Assay type: biochemical
- Test parameters: AlphaScreen assay (values not marked with *); read-out: Akt1 IC50, (AlphaScreen) (μM) (or if marked with “*” HTRF assay)
Property: IC50 (µM)

The following compounds have reported results that may help.
CN1CCOc2cc(-c3ccc4nc(-c5cccnc5N)n(-c5ccc(C6(N)CCC6)cc5)c4n3)ccc21 [Example 433] :: 0.0018
Nc1ncccc1-c1nc2ccc(-c3cccc(N4CCCCCC4)c3)nc2n1-c1ccc(C2(N)CCC2)cc1 [Example 458] :: 0.012
Nc1ncccc1-c1nc2ccc(-c3ccc(F)c(O)c3)nc2n1-c1ccc(C2(N)CCC2)cc1 [Example 436] :: 0.0078
Nc1ncccc1-c1nc2ccc(-c3cccc(N4CCCOCC4)c3)nc2n1-c1ccc(C2(N)CCC2)cc1 [Example 459] :: 0.0077
COc1cccc(-c2ccc3nc(-c4cccnc4N)n(-c4ccc(C5(N)CCC5)cc4)c3n2)c1C#N [Example 444] :: 0.0068

1 = Nc1ncccc1-c1nc2ccc(-c3cccc(N4CCC5(CC4)OCCO5)c3)nc2n1-c1ccc(C2(N)CCC2)cc1 [Example 464]
2 = CNC(=O)c1cc(F)cc(-c2ccc3nc(-c4cccnc4N)n(-c4ccc(C5(N)CCC5)cc4)c3n2)c1 [Example 432]
-- ask Compare reported IC50 values for 1 and 2 . Which is lower? Lab note: record the label of whichever item you select.
-- reply 2
(2: 0.0064 µM, 1: 0.011 µM)

---

- Tested target: Full-length inactive AKT1 (Homo sapiens, UniProt P31749)
- Experimental protocol: Inactive Akt Alpha Screen Assay
- Type: biochemical
- Test parameters: values not marked with "*"; read-out: Akt1 IC50, (AlphaScreen)
pIC50: −log10 of the molar value.
Property: pIC50

Cc1ccc2cc(NC(=O)Cc3ccc(-n4c(-c5cccnc5N)nc5ccc(-c6cccnc6)nc54)cc3)ccc2n1 :: 7.85
Nc1ncccc1-c1nc2ccc(-c3ccncc3)nc2n1-c1ccc(NC(=O)c2ccccc2)cc1 :: 7.72
NCc1ccc(-c2ccc3nc(-c4cccnc4N)n(-c4ccc(CNC(=O)c5cccc(F)c5)cc4)c3n2)cc1 :: 7.60
Nc1ncccc1-c1nc2ccc(-c3cncnc3)nc2n1-c1ccc(C2(N)CCC2)cc1 :: 8.01
CC(=O)Nc1ccc(NC(=O)Cc2ccc(-n3c(-c4cccnc4N)nc4cc(F)cnc43)cc2)cc1 :: 7.21

1 = Cc1ccc2nc(-c3cccnc3N)n(-c3ccc(CNC(=O)c4cccn4C)cc3)c2n1
2 = CC(=O)Nc1cccc(-c2ccc3nc(-c4cccnc4N)n(-c4ccc(CC(=O)Nc5cccc(F)c5)cc4)c3n2)c1
-- ask Which shows the larger pIC50 value: 1 or 2 ? Output the label that corresponds to your choice.
-- reply 2
(2: 7.80, 1: 6.82)

---

- Tested target: Full-length inactive AKT1 (Homo sapiens)
- Experimental protocol: Inactive Akt Alpha Screen Assay
- Assay type: biochemical
- Test parameters: values not marked with "*"; read-out: Akt1 IC50, (AlphaScreen)
pIC50: −log10 of the molar value.
Property: pIC50

1 = Cc1ccc2cc(NC(=O)Cc3ccc(-n4c(-c5cccnc5N)nc5ccc(C)nc54)cc3)ccc2n1 [Example 302]
2 = COc1cc(OC)cc(-c2ccc3nc(-c4cccnc4N)n(-c4ccc(C5(N)CCC5)cc4)c3n2)c1 [Example 411]
-- ask Parameter metric = pIC50. Return the lower-valued option from 1 and 2 . // respond with label for picked entry
-- reply 1

A = Nc1ncccc1-c1nc2cccnc2n1-c1ccc(C2(N)CCC2)cc1 [Example 415]
B = CC(=O)Nc1ccc(-c2ccc3nc(-c4cccnc4N)n(-c4ccc(NC(=O)c5ccccc5)cc4)c3n2)cc1 [Example 253]
-- ask Lab note: check whether A or B has the lower measured pIC50. Which one? Tell me its label.
-- reply B

Numbers sourced from patent US8501770B2.
